All values here come from PubChem BioAssay (NCI).

# Tested on: CAKI-1 renal
# Measurement Description: NCI-60 one-dose screen, 48 h (100 = growth as untreated, 0 = no growth, -100 = all killed)
# Assay Conditions: 10 µM unless noted
The panel holds about 83,000 compounds, 20% with a hit somewhere; the sample as a whole holds those more often.
Would you mind classing the entries by growth? Ranges: low band (below 10%), middle band (10% to below 60%), high band (60% or more)

COc1ccc(C(=O)/C=C/c2ccc3ccccc3c2)cc1S(N)(=O)=O    low band

-- ask Form field 'band' for `O=C(Cn1c2c(sc1=O)[C@H]1[C@@H](O)[C@@H](O)[C@H](O)[C@@H]1CS2)N1CCOCC1`
-- reply high band

-- ask Form field 'band' for CN(C)CCOc1ccc(C(=O)C2[C@H](c3ccc(Cl)cc3)[C@@H](c3ccccc3)NC23C(=O)Nc2ccccc23)cc1 (some centres not stated)
-- reply middle band

-- ask Form field 'band' for `N/C(=N\N=C\c1ccc([N+](=O)[O-])cc1)c1c(N)nc(=S)[nH]c1-c1ccc(Cl)cc1Cl`
-- reply high band

-- ask Form field 'band' for CC(=O)OC[C@@]1(C)C2CC[C@]3(C)C(CC=C4C5CC(C)(C)CC[C@]5(C(=O)Nc5ccc(F)cc5)CC[C@]43C)[C@@]2(C)C[C@@H](OC(C)=O)[C@@H]1OC(C)=O (some centres not stated)
-- reply middle band

###

# System: MALME-3M melanoma
# Measurement Description: NCI-60 one-dose screen, 48 h
# Assay Conditions: 10 µM unless noted
Compounds without any hit were thinned out: in the full panel of roughly 83,000, 20% have a hit. Active and inactive are the calls of the source. The calls were made as follows: active = growth percent below 10; inactive = the rest.
Your answer must be one of the following: T (active), F (inactive)

Reference set (3 entries):
COc1c(F)ccc(C(=O)Nc2ccc3nc(NC(=O)C4CCCN(S(=O)(=O)c5ccc(Cl)cc5)C4)sc3c2)c1F (centres undefined)    F
COc1cc(CNC(=O)/C=C/c2ccc3c(c2)OCO3)ccc1OCc1cn(-c2cccc(C(F)(F)F)c2)nn1    T
COc1cc2c(c(OC)c1OC)C(=O)CC(c1cccc(NC(=O)c3cc(N)ccc3Cl)c1)O2 (centres undefined)    F

Okay, now this compound:
-- ask Query: recorded result category for `O=C(/C=C/c1cccc(OCc2ccc(F)cc2)c1)c1nc2ccccc2[nH]1` in this test
-- reply F

###

# System: IGROV1 ovarian
# Measurement Description: NCI-60 one-dose screen, 48 h
# Assay Conditions: 10 µM unless noted
The panel holds about 83,000 compounds, 20% with a hit somewhere; the sample as a whole holds those more often. The source made the active and inactive calls. Rule for the calls: active = growth percent below 10; inactive = the rest.
Your answer must be one of the following: active, inactive

-- ask Query: recorded result category for `COc1ccc(/C=C/c2nc3ccccc3c(=O)n2CC(=O)Nc2ccc(Cl)cc2)cc1` in this test
-- reply inactive

###

# Test system: SNB-75 CNS
# Measurement Description: NCI-60 one-dose screen, 48 h (100 = growth as untreated, 0 = no growth, -100 = all killed)
# Assay Conditions: 10 µM unless noted
The panel holds about 83,000 compounds, 20% with a hit somewhere; the sample as a whole holds those more often.
Below is a list of entries, each paired with its recorded growth value.
# number only, unit % dropped from output

Sample records with growth:
CCOP(=O)(OCCCl)c1nc(-c2ccc(C)cc2)oc1NCc1ccccc1 (stereo not drawn)    69.9
COc1ccc2cc([C@H](C)C(=O)N/N=C/c3ccc(Br)cc3)ccc2c1    71.4

Below: the item to evaluate.
Measured growth, `O=C(c1ccc(Cl)cc1)c1ccc(OCCCN2CCN(c3ccncc3)CC2)cc1` : 69.4
